# Test system: biotinyl-Ile-oxazolone
# test.summary: self-aminoacylation, catalytic enhancement (BIO) (fold over background); higher = more active; k-Seq, kA / k0A0; sequences stand for … in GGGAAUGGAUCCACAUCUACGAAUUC…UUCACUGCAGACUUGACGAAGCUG
Variants at the floor of the assay were thinned out.
quantity.kind: self-aminoacylation
Answers are plain numbers.

Study these solved cases before continuing.
residue.sequence: AUUCACCUAGAUCAACGGGUG [Fam2.2 aminoacylation ribozyme variant]
target: biotinyl-Ile-oxazolone
self-aminoacylation: 2.73

residue.sequence: CUACAUCGAACAAUCGGUCUG [Fam1A.1 aminoacylation ribozyme variant]
target: biotinyl-Ile-oxazolone
self-aminoacylation: 0.909

residue.sequence: AUUCACGUAGGUCAUCGGGUG [Fam2.2 aminoacylation ribozyme variant]
target: biotinyl-Ile-oxazolone
self-aminoacylation: 4.22

residue.sequence: AUGACCGUGGUCAUCGAGUGA [Fam2.1 aminoacylation ribozyme variant]
target: biotinyl-Ile-oxazolone
self-aminoacylation: 3.34

residue.sequence: AUUAUCGUGGUCAUCGAGUGA [Fam2.1 aminoacylation ribozyme variant]
target: biotinyl-Ile-oxazolone
self-aminoacylation: 2.83

residue.sequence: AUUCACCUACGUCAUCCGGUG [Fam2.2 aminoacylation ribozyme variant]
target: biotinyl-Ile-oxazolone
self-aminoacylation: 4.29

residue.sequence: CUACUUCAAACAAUAGGACUG [Fam1A.1 aminoacylation ribozyme variant]
target: biotinyl-Ile-oxazolone
self-aminoacylation: 0.633

residue.sequence: AUUCACCAAGGUCAUCGGGAG [Fam2.2 aminoacylation ribozyme variant]
target: biotinyl-Ile-oxazolone
self-aminoacylation: 1.36

Please go through the list and note self-aminoacylation for each sequence.
1. AUUUCCCUGGUCAUCGGGUGA [Fam2.1 aminoacylation ribozyme variant]
2. AAGUUUGAGAAUAGUCGCAAG [Fam3.1 aminoacylation ribozyme variant]

Solution:
[10.1, 1.48]

----------
# Test system: biotinyl-Val-oxazolone
# test.summary: self-aminoacylation, catalytic enhancement (BVO) (fold over background); higher = more active; k-Seq, kA / k0A0; sequences stand for … in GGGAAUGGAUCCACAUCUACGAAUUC…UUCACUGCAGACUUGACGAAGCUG
Variants at the floor of the assay were thinned out.
Threshold rule: self-aminoacylation greater than or equal to 3 is yes; below that, no.

Reference set, count: 3
residue.sequence: AUUACCUUGGUCACCGAGUGA [Fam2.1 aminoacylation ribozyme variant]
assigned.class: yes
--
residue.sequence: AUUCACCUAGGUGACCGGGUG [Fam2.2 aminoacylation ribozyme variant]
assigned.class: yes
--
residue.sequence: CUACGUCAAACAAUCGGUCAG [Fam1A.1 aminoacylation ribozyme variant]
assigned.class: no

Exercise: Test whether the sequence AUUCACCGAGGGCAUCGGGUG [Fam2.2 aminoacylation ribozyme variant] records self-aminoacylation of 3 or higher.
Solution: yes

Exercise: And for AUUUAGCUAGGUCAUCGGGUG [Fam2.2 aminoacylation ribozyme variant] ?
Solution: yes

Exercise: And for CCACACUUUCAGCAAUCGGUC [Fam1B.1 aminoacylation ribozyme variant] ?
Solution: no

Exercise: And for CCAUACUUCAAGCAAUAGGUC [Fam1B.1 aminoacylation ribozyme variant] ?
Solution: no

----------
# System: biotinyl-Met-oxazolone
# test.summary: self-aminoacylation, catalytic enhancement (BMO) (fold over background); higher = more active; k-Seq, kA / k0A0; sequences stand for … in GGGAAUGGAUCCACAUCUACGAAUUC…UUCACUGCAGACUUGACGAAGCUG
Fewer inactive variants are shown than the library holds.
quantity.kind: self-aminoacylation
Answers are plain numbers.

residue.sequence: AUUACCCUGGCCAUAGAGUGA [Fam2.1 aminoacylation ribozyme variant]
quantity.kind: self-aminoacylation
value.observed: 4.15
//
residue.sequence: CCACGCUUUAAGCAAUCGGUC [Fam1B.1 aminoacylation ribozyme variant]
quantity.kind: self-aminoacylation
value.observed: 0.713
//
residue.sequence: CCACAUUUCAAGCAUUCGGUC [Fam1B.1 aminoacylation ribozyme variant]
quantity.kind: self-aminoacylation
value.observed: 1.65

Please go through the list and note self-aminoacylation for each sequence.
1. AAGUUUGCUAAUUGUCGCAGG [Fam3.1 aminoacylation ribozyme variant]
2. AUUACCCGGGUCAUCGAGUGG [Fam2.1 aminoacylation ribozyme variant]
3. AACUUUGCUAAGAGUCGCAAG [Fam3.1 aminoacylation ribozyme variant]
4. CCACACUUCAACCAAUCGGUC [Fam1B.1 aminoacylation ribozyme variant]

Solution:
1: 1.43; 2: 1.63; 3: 3.93; 4: 1.38

Please go through the list and note self-aminoacylation for each sequence.
1. CUACUUCCAACAAUAGGUCUG [Fam1A.1 aminoacylation ribozyme variant]
2. AUUACCCCAGUCAUCGAGUGA [Fam2.1 aminoacylation ribozyme variant]
3. AUUACGCUGGUUAUCGAGUGA [Fam2.1 aminoacylation ribozyme variant]
4. AAGUUUGCUCAUAGUUGCAAG [Fam3.1 aminoacylation ribozyme variant]
5. CUAGUUCAAACAACCGGUCUG [Fam1A.1 aminoacylation ribozyme variant]

Solution:
0.562
6.05
5.92
0.916
1.05

Please go through the list and note self-aminoacylation for each sequence.
1. CCACACUUCGAGCAAUCGGUU [Fam1B.1 aminoacylation ribozyme variant]
2. AAGUUUGCUAAUCUUCGCAAG [Fam3.1 aminoacylation ribozyme variant]
3. AUUCGCCUAGGCCAUCGGGUG [Fam2.2 aminoacylation ribozyme variant]
4. AUGCACCUAGGUCAUCGGGCG [Fam2.2 aminoacylation ribozyme variant]
5. AUUACCCUGGACAUCGAGUGU [Fam2.1 aminoacylation ribozyme variant]
6. AUUACACUGGUCAUCGAGUCA [Fam2.1 aminoacylation ribozyme variant]

Solution:
1.83
1.07
4.46
2.37
3.35
0.865
